Biological target: KDM2B (FBXL10) (Homo sapiens)
Construct: KDM2B; BPS,; 1-650; Bac; purchased BPS Bioscience, US; host or cells: baculovirus system
Sequence (Q8NHM5 1-650): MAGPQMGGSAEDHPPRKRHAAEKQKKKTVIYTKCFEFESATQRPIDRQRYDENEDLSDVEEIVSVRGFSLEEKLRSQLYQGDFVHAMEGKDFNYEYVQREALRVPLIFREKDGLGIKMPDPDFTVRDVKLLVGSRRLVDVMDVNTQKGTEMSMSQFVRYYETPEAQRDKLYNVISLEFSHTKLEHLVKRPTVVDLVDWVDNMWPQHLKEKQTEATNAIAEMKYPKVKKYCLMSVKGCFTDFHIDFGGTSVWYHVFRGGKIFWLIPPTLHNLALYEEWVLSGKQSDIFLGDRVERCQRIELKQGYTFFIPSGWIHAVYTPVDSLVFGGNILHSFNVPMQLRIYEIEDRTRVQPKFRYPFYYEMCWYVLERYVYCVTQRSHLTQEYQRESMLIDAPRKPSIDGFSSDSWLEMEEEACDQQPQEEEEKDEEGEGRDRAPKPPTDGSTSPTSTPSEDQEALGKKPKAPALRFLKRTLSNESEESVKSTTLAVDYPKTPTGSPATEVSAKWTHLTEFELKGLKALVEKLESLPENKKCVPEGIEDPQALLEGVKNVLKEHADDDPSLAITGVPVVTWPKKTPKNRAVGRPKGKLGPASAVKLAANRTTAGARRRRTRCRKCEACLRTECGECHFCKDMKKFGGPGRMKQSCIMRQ
Assay: Histone lysine demethylase AlphaLISA assay, KDM2B
Assay type: biochemical
Details: AlphaLISA, in vitro; read-out: HDME Inhibition KDM2B
attribute_measured: log10 of IC50 (log10 of the value in nM)

{"molecule": "CCc1cnc(CNCc2cc(C(=O)O)cc(C)n2)n1CCc1ccccc1 [Compound 54]", "result_number": 3.06}
{"molecule": "CC#CCc1cnc(CNCc2cc(C(=O)O)cc(C)n2)n1Cc1ccc(F)cc1 [Compound 112]", "result_number": 2.57}
{"molecule": "CCc1cnc(CNCc2cc(C(=O)O)cc(C)n2)n1Cc1ccc(F)cc1 [Compound 4]", "result_number": 1.48}
{"molecule": "Cc1ccc(OCCC(C)C)c(CCNCc2cc(C(=O)O)cc(C)n2)c1 [Compound 89]", "result_number": 3.36}
{"molecule": "O=C(O)c1cc(CO)nc(CNCCc2nncn2Cc2ccc(C(F)(F)F)cc2)c1 [Compound 66]", "result_number": 3.76}
{"molecule": "Cc1cc(C(=O)O)cc(CNCc2nnc3n2C(c2ccccc2)CNC3)n1 (stereo not drawn) [Compound 113]", "result_number": 3.45}
{"molecule": "Cc1cc(C(=O)O)cc(CNCc2nnc(C3CC3)n2Cc2ccc(F)cc2)n1 [Compound 38]", "result_number": 3.36}
{"molecule": "Cc1cc(C(=O)O)cc(CNCc2nnc(C(C)O)n2Cc2ccc(F)cc2)n1 (stereo not drawn) [Compound 85]", "result_number": 2.66}
{"molecule": "C=C(C)c1cnc(CNCc2cc(C(=O)O)cc(C)n2)n1Cc1ccc(F)cc1 [Compound 103]", "result_number": 1.75}
{"molecule": "COc1ccc(OCCc2ccccc2)c(CCNCc2cc(C(=O)O)cc(CO)n2)n1 [Compound 107]", "result_number": 3.71}
{"molecule": "COc1ccc(OCc2ccccc2)c(CNCc2cc(C(=O)O)cc(C)n2)n1 [Compound 92]", "result_number": 1.72}
{"molecule": "COc1ccc(CC(C)C)c(CNCc2cc(C(=O)O)cc(CO)n2)n1 [Compound 84]", "result_number": 2.40}
{"molecule": "Cc1cc(C(=O)O)cc(CNCc2nocc2COc2ccc(F)cc2)n1 [Compound 76]", "result_number": 3.67}
{"molecule": "Cc1cc(C(=O)O)cc(CNCc2nnc(C3CCC3)n2Cc2ccc(F)cc2)n1 [Compound 45]", "result_number": 2.70}
{"molecule": "Cc1cc(C(=O)O)cc(CNCc2nnc(Cc3ccccc3)n2Cc2ccc(F)cc2)n1 [Compound 29]", "result_number": 3.06}
{"molecule": "O=C(O)c1cc(CO)nc(CNCc2nnc(Cc3cccs3)n2Cc2ccc(F)cc2)c1 [Compound 71]", "result_number": 2.14}
{"molecule": "Cc1cc(C(=O)O)cc(CNCc2ncc(CN(C)C)n2Cc2ccc(F)cc2)n1 [Compound 50]", "result_number": 2.84}
{"molecule": "O=C(O)c1cc(CO)nc(CNCc2nc(CO)cn2Cc2ccc(F)cc2)c1 [Compound 88]", "result_number": 2.77}
{"molecule": "CCn1cnc2cc(Cn3cnnc3CNCc3cc(C(=O)O)cc(C)n3)ccc21 [Compound 41]", "result_number": 3.22}
{"molecule": "O=C(O)c1cc(CO)nc(CNCc2nccn2Cc2ccc(F)cc2)c1 [Compound 81]", "result_number": 2.15}
{"molecule": "O=C(O)c1cc(CO)nc(CNCc2nnc(-c3cccs3)n2CCCc2ccccc2)c1 [Compound 95]", "result_number": 2.59}
{"molecule": "Cc1cc(C(=O)O)cc(CNCc2nccn2CCC(C)C)n1 [Compound 18]", "result_number": 3.59}
{"molecule": "O=C(O)c1cc(CO)nc(CNCc2nncn2Cc2ccc(F)cc2)c1 [Compound 62]", "result_number": 2.39}
{"molecule": "Cc1cc(C(=O)O)cc(CNCCc2nncn2Cc2ccc(C(F)(F)F)cc2)n1 [Compound 60]", "result_number": 3.21}
{"molecule": "Cc1cc(C(=O)O)cc(CNCc2nccn2Cc2ccc(F)cc2)n1 [Compound 1]", "result_number": 2.63}
{"molecule": "Cc1cc(C(=O)O)cc(CNCc2nccn2Cc2cccc(C#N)c2)n1 [Compound 47]", "result_number": 3.10}
{"molecule": "Cc1cc(C(=O)O)cc(CNCCc2ccccn2)n1 [Compound 3]", "result_number": 3.67}
{"molecule": "Cc1nnc(CNCc2cc(C(=O)O)cc(CO)n2)n1Cc1ccc(F)cc1 [Compound 72]", "result_number": 2.45}
{"molecule": "CCc1nnc(CNCc2cc(C(=O)O)cc(CO)n2)n1CCCC(C)C [Compound 94]", "result_number": 1.67}
{"molecule": "Cc1cc(C(=O)O)cc(CNCc2nnc(C)n2Cc2ccc(F)cc2)n1 [Compound 37]", "result_number": 2.47}
{"molecule": "CC(O)c1nnc(CNCc2cc(C(=O)O)cc(CO)n2)n1Cc1ccc(F)cc1 (stereo not drawn) [Compound 77]", "result_number": 2.58}
{"molecule": "Cc1cc(C(=O)O)cc(CNCc2nnc(CCN(C)C)n2Cc2ccc(F)cc2)n1 [Compound 46]", "result_number": 3.36}
